experimental target: Phosphatidylinositol 5-phosphate 4-kinase type-2 alpha (Homo sapiens) (UniProt P48426)
Sequence (P48426 whole entry, looked up): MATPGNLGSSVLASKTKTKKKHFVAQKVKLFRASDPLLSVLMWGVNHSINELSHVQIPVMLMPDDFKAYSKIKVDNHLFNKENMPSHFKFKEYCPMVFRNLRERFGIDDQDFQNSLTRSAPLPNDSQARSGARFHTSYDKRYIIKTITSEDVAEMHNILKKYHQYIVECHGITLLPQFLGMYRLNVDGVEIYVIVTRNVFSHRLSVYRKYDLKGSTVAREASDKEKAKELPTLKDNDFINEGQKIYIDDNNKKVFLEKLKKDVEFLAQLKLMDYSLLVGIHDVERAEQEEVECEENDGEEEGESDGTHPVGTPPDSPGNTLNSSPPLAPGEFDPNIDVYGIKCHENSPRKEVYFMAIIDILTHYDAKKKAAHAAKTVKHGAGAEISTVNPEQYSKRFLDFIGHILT
test method notes: qHTS for Inhibitors of phosphatidylinositol 5-phosphate 4-kinase (PI5P4K); also: value at the top dose of about 77 µM; % is scaled to controls: 0 for no effect and ±100 for the full control effect
condition label: PI5P4Kalpha enzyme, ADP-Glo luminescence, 60 min; hits give low values
In all, about 330,000 compounds went through this assay and about 4,100 (1.2%) were called active. Another 2% or so got no clear call; they are omitted. The sample as a whole holds a higher share of actives than the screen did.
readout type: max response

Sample records with max response:
compound=CCCCCCCCN1C(=O)[C@H](CC(=O)NCc2cccc3ccccc23)C[C@@]2(C(=O)OC)CCCCC=C12 readout_type="max response" reported_value="22.3% (inactive)"
compound="CC1Cc2[nH][nH]c(=O)c2C(C2CCCC2)O1 (stereo not given)" readout_type="max response" reported_value="0.644% (inactive)"
compound="Cc1cccc(C)c1-n1nnnc1C1(C)CCC(=O)N1CCOc1ccccc1 (stereo not given)" readout_type="max response" reported_value="6.34% (inactive)"
compound=CN(C)c1cccc(NC(=O)c2ccc(-c3ccc(F)c(F)c3)c3ccoc23)c1 readout_type="max response" reported_value="2.45% (inactive)"

Reported max response for COc1ccc(NC(=O)C2Cc3c(-c4ccc(Cl)cc4)ccnc3O2)cc1 (stereo not given) was -2.22% (inactive)

* * *

experimental target: Phosphatidylinositol 5-phosphate 4-kinase type-2 alpha (Homo sapiens) (UniProt P48426)
test method notes: qHTS for Inhibitors of phosphatidylinositol 5-phosphate 4-kinase (PI5P4K); also: value at the top dose of about 77 µM; % is scaled to controls: 0 for no effect and ±100 for the full control effect
condition label: PI5P4Kalpha enzyme, ADP-Glo luminescence, 60 min; hits give low values
The whole screen tested about 330,000 compounds, of which about 4,100 (1.2%) were called active. Inconclusive results (about 2%) are left out. This is one part of a sample in which actives are shown more often than they occur.
Kindly state max response for each of the entries shown.
Answers are plain numbers, in %.

compound=O[C@H]1C[C@H](c2ccc(Cl)cc2)N(Cc2cccs2)C[C@@H]1n1cc(C2CC2)nn1 readout_type="max response" u=% reported_value=16.1
compound=CCOc1ccccc1Nc1ccc(C(=O)O)cc1[N+](=O)[O-] readout_type="max response" u=% reported_value=-1.68
compound=CC1CCN(C(=O)COC(=O)CCC(=O)c2cccs2)CC1 readout_type="max response" u=% reported_value=-4
compound=Cc1cn([C@H]2C[C@H](O)[C@@H](/C=C/C(=O)NCCCc3ccccc3)O2)c(=O)[nH]c1=O readout_type="max response" u=% reported_value=-0.963
compound="C=C1c2c(Cl)ccc(O)c2C(O)=C2C(=O)[C@]3(O)C(O)=C(C(N)=O)C(=O)[C@@H](N(C)C)[C@@H]3[C@@H](O)C12 (some centres not stated)" readout_type="max response" u=% reported_value=-76.5

Give max response for all compounds that follow.
1. COCCNC(=O)C1CCCN(Cc2ccccc2Cl)CC1 (configuration not stated)
2. CN(C(=O)CN1CCN(c2cc(-c3ccc(OCc4ccccc4)cc3)ncn2)CC1)c1ccccc1
3. CC(C)C[C@H]1CNC(=O)C(=O)N1C[C@H]1CCCN1C[C@H](Cc1ccc(O)cc1)N1C[C@H](CC(C)C)N(CC2CCCCCC2)C(=O)C1=O
4. Cc1c(C(=O)NCc2ccc(C#N)cc2)sc(=O)n1Cc1ccc(C(=O)N(C)C)cc1
5. CCCCOCCCNC(=O)C[C@@H]1C[C@@]2(C(=O)OCC)CCCC=C2N(CCC2=CCCCC2)C1=O
6. O=C(Nc1ccc2ccccc2c1[N+](=O)[O-])c1ccccc1
7. CCOC1=C2[C@@H](CN(S(=O)(=O)c3ccc(C)cc3)[C@H]2c2ccccc2F)[C@H]2C(=O)N(Cc3ccccc3)C(=O)[C@H]2C1
8. CCCCNC(=O)C[C@@H]1C[C@@]2(C(=O)OC)CC(C)(C)CC=C2N(Cc2ccco2)C1=O

Response line:
0.686
-25
-0.421
-1.71
1.62
-2.74
-0.38
4.39

Give max response for all compounds that follow.
1. CN(C)[C@@H]1C(=O)C(C(N)=O)=C(O)[C@@]2(O)C(=O)C3=C(O)c4c(O)ccc(Cl)c4[C@@H](O)[C@H]3C[C@@H]12
2. CCCNC(=O)c1cc2c(c(-c3cccc(-c4ccc(C#N)cc4)c3)n1)[C@@H](CCO)N(C(=O)CC)C2
3. O=C(O)c1cc([N+](=O)[O-])c(Nc2cccc3ccccc23)c([N+](=O)[O-])c1
4. O=C(Nc1ccc(OCCO)cc1)c1csc([C@H]2C[C@H](O)[C@@H](CO)O2)n1
5. C[C@@H]1C[C@@H]2O[C@H]2/C=C\C=C\C(=O)Cc2c(Cl)c(O)cc(O)c2C(=O)O1
6. COc1ccc(OCCCC(=O)Nc2nnc(C3CCCO3)s2)cc1 (configuration not stated)
7. Cc1nnc(NC(=O)CCCOc2ccccc2)s1
8. O=C(c1ccc(CS(=O)Cc2ccccc2Cl)o1)N1CCN(c2ccccc2)CC1 (configuration not stated)

Response line:
[-11.8, -0.337, -64.5, -3.56, -50.5, -53, -10, -2.59]

Give max response for all compounds that follow.
1. O=C(COC(=O)Cc1ccc(Cl)cc1Cl)NCc1ccco1
2. O=C(COC(=O)c1cc(S(=O)(=O)N2CCCCC2)ccc1Cl)NCc1ccco1
3. CC(C)C[C@H]1CNC(=O)C(=O)N1C[C@@H]1CCCN1C[C@H](Cc1ccccc1)N1C[C@H](CC(C)C)N(CC2CCCCCC2)C(=O)C1=O

Response line:
1: 0.392; 2: -24.6; 3: -0.689
